assayed_system: hCMV UL130 and UL131A co-expressed in HEK293T cells (human cytomegalovirus, UniProt P16772 1-214)
Sequence (P16772 whole entry): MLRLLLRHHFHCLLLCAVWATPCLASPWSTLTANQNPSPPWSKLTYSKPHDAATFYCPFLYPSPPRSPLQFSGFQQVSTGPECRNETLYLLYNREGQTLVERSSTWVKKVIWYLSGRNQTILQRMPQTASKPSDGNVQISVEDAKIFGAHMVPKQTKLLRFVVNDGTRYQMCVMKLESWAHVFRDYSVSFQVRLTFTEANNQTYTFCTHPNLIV
test: cell-based or functional assay
reported_property: 50% Neutralization MRC-9 (hCMV VR1814)

What value of 50% Neutralization MRC-9 (hCMV VR1814) has been recorded for this entry: 10P3 (antibody, V domains shown, human IgG mAb) VH: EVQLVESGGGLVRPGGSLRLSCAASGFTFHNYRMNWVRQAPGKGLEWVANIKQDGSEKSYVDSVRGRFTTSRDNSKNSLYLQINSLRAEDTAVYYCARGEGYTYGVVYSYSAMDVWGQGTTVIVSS VL: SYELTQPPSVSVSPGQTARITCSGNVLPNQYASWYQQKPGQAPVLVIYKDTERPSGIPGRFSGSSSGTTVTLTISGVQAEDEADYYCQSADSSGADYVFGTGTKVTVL > 2 µg/mL
